molecular target: HLA-B*2705 expressed on C1R-neo cells (human, UniProt P01889 25-362; P61769 21-119); assay: ECL cell binding, C1R-neo B*2705 cells, pH 7.2
measurement-label: max RLU (RLU)
Just the number please, in RLU, no unit attached.

IN: What value of max RLU has been reported for the following binder? H4H2499N8 (antibody, V domains shown) VH: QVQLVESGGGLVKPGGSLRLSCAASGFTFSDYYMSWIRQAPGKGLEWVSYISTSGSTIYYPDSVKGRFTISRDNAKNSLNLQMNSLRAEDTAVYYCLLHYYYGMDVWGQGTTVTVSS VL: EIVLTQSPATLSLSPGERAPLSCRASQHVHHYLAWYQQKPGQPPRLLIYDASNRATGIPARFSGSGSGTDFTLTISSLEPEDFAVYYCQQRSNWPWTFGQGTKVEIK
OUT: 17800

IN: Tell me the measured max RLU of H4H2499N16 (antibody, V domains shown) VH: QVQLVESGGGLVKPGGSLRLSCAASGFTFSDYYMSWIRQAPGKGLEWVSYISTSGSTIYYPDSVKGRFTISRDNAKNSLNLQMNSLRAEDTAVYYCLHHHYYGHDVWGQGTTVTVSS VL: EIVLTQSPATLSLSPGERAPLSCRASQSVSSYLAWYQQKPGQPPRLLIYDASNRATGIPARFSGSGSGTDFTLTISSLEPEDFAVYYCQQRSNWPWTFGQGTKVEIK , please.
OUT: 11400

IN: Which value of max RLU has been reported for H4H2499N5 (antibody, V domains shown) VH: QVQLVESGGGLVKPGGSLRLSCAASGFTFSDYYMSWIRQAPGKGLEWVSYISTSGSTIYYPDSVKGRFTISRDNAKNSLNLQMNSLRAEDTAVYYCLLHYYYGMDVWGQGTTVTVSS VL: EIVLTQSPATLSLSPGERAPLSCRASHSVHSHLAWYQQKPGQPPRLLIYDASNRATGIPARFSGSGSGTDFTLTISSLEPEDFAVYYCQQRSNWPWTFGQGTKVEIK in the records?
OUT: 16900

IN: For the binder H4H2499N15 (antibody, V domains shown) VH: QVQLVESGGGLVKPGGSLRLSCAASGFTFSDYYMSWIRQAPGKGLEWVSYISTSGSTIYYPDSVKGRFTISRDNAKNSLNLQMNSLRAEDTAVYYCLHHHYYGMDHWGQGTTVTVSS VL: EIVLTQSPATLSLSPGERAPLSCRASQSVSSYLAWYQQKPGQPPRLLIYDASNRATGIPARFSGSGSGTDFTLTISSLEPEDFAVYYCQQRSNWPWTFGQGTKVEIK , what max RLU is on record?
OUT: 8000

IN: Value lookup for max RLU; key = H4H2499N12 (antibody, V domains shown) VH: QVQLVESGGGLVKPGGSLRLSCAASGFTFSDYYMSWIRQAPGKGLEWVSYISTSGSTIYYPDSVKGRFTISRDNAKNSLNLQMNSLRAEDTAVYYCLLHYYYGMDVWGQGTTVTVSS VL: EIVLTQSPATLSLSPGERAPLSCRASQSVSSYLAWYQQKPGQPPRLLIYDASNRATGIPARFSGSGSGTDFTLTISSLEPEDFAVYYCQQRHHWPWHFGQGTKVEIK
OUT: 23000

IN: Would you kindly share the measured max RLU for H4H2499N7 (antibody, V domains shown) VH: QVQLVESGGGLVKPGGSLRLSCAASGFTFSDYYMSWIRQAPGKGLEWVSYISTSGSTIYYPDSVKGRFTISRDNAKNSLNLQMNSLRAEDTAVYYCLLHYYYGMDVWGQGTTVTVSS VL: EIVLTQSPATLSLSPGERAPLSCRASQHVHSHLAWYQQKPGQPPRLLIYDASNRATGIPARFSGSGSGTDFTLTISSLEPEDFAVYYCQQRSNWPWTFGQGTKVEIK ?
OUT: 15700

IN: What does the data say about its max RLU? Entry: H4H2499N9 (antibody, V domains shown) VH: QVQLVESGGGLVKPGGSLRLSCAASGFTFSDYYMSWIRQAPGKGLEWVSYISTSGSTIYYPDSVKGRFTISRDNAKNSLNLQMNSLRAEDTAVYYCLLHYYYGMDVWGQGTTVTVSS VL: EIVLTQSPATLSLSPGERAPLSCRASHHVHSHLAWYQQKPGQPPRLLIYDASNRATGIPARFSGSGSGTDFTLTISSLEPEDFAVYYCQQRSNWPWTFGQGTKVEIK
OUT: 15700

IN: # input binder: H4H2499N19 (antibody, V domains shown) VH: QVQLVESGGGLVKPGGSLRLSCAASGFTFSDYYMSWIRQAPGKGLEWVSYISTSGSTIYYPDSVKGRFTISRDNAKNSLNLQMNSLRAEDTAVYYCLHHYYYGHDHWGQGTTVTVSS VL: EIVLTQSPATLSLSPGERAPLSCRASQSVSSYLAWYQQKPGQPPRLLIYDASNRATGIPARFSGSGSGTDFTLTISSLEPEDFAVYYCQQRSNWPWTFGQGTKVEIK ; wanted: its max RLU
OUT: 9990
